Listed here: items and their measured pIC50.
- target: Collagenase 3 (Homo sapiens, UniProt P45452)
- assay.method.text: Inhibition of recombinant human MMP13 (104 to 274 residues) using Mca-Pro-Leu-Gly-Leu-Dpa-Ala-Arg-NH2 expressed in Escherichia coli expression system as substrate incubated for 15 mins followed by substrate addition and measured after 2 to 4 hrs by fluorescence based assay
pIC50: −log10 of the molar value.

Before answering, review these 2 worked examples.
Nc1cc(-c2cccs2)cc2c1c(=O)[nH]c1ccccc12 :: < 4.00
O=c1[nH]c2ccccc2c2cc(-c3ccco3)cc(Nc3ccc(F)cc3)c12 :: < 4.00

Attention now shifts to the item below.
Fill in reported pIC50 for this entry: Nc1cc(-c2ccccc2)cc2c1c(=O)[nH]c1ccccc12
< 4.00

---

- target: Matrix metalloproteinase-9 (Homo sapiens, UniProt P14780)
- Sequence (P14780 whole entry, the tested form may be a part): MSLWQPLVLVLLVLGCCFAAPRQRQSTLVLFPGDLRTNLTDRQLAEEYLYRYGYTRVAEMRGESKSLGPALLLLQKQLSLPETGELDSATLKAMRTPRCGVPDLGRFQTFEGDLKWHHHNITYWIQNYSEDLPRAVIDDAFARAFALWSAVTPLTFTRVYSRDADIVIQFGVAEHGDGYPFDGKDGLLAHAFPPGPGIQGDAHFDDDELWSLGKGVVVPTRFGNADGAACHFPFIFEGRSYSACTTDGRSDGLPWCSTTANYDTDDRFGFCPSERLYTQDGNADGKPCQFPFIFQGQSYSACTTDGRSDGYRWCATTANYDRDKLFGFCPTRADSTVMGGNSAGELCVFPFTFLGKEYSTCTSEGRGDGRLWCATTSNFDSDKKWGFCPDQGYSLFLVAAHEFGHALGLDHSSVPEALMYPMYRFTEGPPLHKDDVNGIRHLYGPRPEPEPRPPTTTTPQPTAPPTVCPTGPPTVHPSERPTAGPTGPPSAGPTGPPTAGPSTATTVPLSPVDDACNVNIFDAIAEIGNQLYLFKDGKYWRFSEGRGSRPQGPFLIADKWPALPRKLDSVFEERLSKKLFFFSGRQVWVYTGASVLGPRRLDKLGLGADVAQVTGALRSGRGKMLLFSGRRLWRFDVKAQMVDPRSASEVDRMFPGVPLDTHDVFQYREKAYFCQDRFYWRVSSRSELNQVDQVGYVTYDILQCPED
- assay.method.text: Inhibition of recombinant human MMP9 (107 to 449 residues) using Mca-Pro-Leu-Gly-Leu-Dpa-Ala-Arg-NH2 expressed in Escherichia coli expression system as substrate incubated for 15 mins followed by substrate addition and measured after 2 to 4 hrs by fluorescence based assay
Friendly reminder: IC50 below 90 µM is Yes, at or above is No.

See these solved cases before continuing.
O=c1[nH]c2ccccc2c2cc(-c3ccco3)cc(Nc3ccc(F)cc3)c12 :: No
Nc1cc(-c2cccs2)cc2c1c(=O)[nH]c1ccccc12 :: No
CCCCNc1cc(-c2ccccc2)cc2c1c(=O)[nH]c1ccccc12 :: No
Nc1ccc(-c2cc(Nc3ccccc3)c3c(=O)[nH]c4ccccc4c3c2)cc1 :: Yes
CCCCNc1cc(-c2cccs2)cc2c1c(=O)[nH]c1ccccc12 :: No

I wonder whether Cn1c(=O)c2c(Nc3ccccc3)cc(-c3ccccc3)cc2c2ccccc21 has IC50 below 90 µM. Can you tell?
No

Is IC50 of O=c1[nH]c2ccccc2c2cc(-c3ccco3)cc(Nc3ccccc3)c12 strictly below 90 µM?
No

---

- target: Matrix metalloproteinase-9 (Homo sapiens)
- assay.method.text: Inhibition of recombinant human MMP9 (107 to 449 residues) using Mca-Pro-Leu-Gly-Leu-Dpa-Ala-Arg-NH2 expressed in Escherichia coli expression system as substrate incubated for 15 mins followed by substrate addition and measured after 2 to 4 hrs by fluorescence based assay
Reported IC50 is given for each of the following compounds.

Some solved cases for reference:
CN(C)c1ccc(Nc2cc(-c3ccccc3)cc3c2c(=O)[nH]c2ccccc23)cc1 :: 88 µM
Nc1cc(-c2ccccc2)cc2c1c(=O)[nH]c1ccccc12 :: > 100 µM
COc1ccc(-c2cc(Nc3ccccc3)c3c(=O)[nH]c4ccccc4c3c2)cc1 :: 32 µM

Okay, now this compound:
Write down IC50 measured for item O=c1[nH]c2ccccc2c2cc(-c3ccccc3)cc(Nc3ccc(F)cc3)c12
99 µM
